# Test system: Pseudomonas aeruginosa
# ASSAY METHOD TEXT: Antimicrobial activity against Pseudomonas aeruginosa H1001 expressing luciferase gene assessed as ratio antimicrobial IC50 for drug to Bac2A peptide by luminescence assay
# Format: functional
For each entry below, report its Ratio IC50 value.

Entry `H-WRFKVLRQR-OH` , Ratio IC50 reported as 7.08

Entry `H-KFWWWNYLK-OH` , Ratio IC50 reported as 1.81

Entry `H-WHGVRWWKW-OH` , Ratio IC50 reported as 2.5

Entry `H-RRRKTWYWW-OH` , Ratio IC50 reported as 0.32

Entry `H-IRRIVRRKI-OH` , Ratio IC50 reported as 11.15

Entry `H-SWYRTRKRV-OH` , Ratio IC50 reported as 6.66

* * *

# Test system: Pseudomonas aeruginosa
# ASSAY METHOD TEXT: Antimicrobial activity against Pseudomonas aeruginosa H1001 expressing luciferase gene assessed as ratio antimicrobial IC50 for drug to Bac2A peptide by luminescence assay
# Assay type: functional
ASSAY READOUT: Ratio IC50
Enter a number only.

Entry `H-RWKIFIRWW-OH` , Ratio IC50 reported as 1.82

Entry `H-GKRVWGRGR-OH` , Ratio IC50 reported as 8.2

Entry `H-IRKKRRRWT-OH` , Ratio IC50 reported as 6.59

Entry `H-ATWIWVFRR-OH` , Ratio IC50 reported as 4.88

Entry `H-WKKWWKRRW-OH` , Ratio IC50 reported as 0.19

Entry `H-VVLKIVRRF-OH` , Ratio IC50 reported as 25

Entry `H-IRQWWRRWW-OH` , Ratio IC50 reported as 0.5

Entry `H-NRRNGQMRR-OH` , Ratio IC50 reported as 8.41

Entry `H-GGIRRLRWY-OH` , Ratio IC50 reported as 1.16

Entry `H-GVRSWSQRT-OH` , Ratio IC50 reported as 8.5

Entry `H-IKRVKRRKR-OH` , Ratio IC50 reported as 2.93

Entry `H-RRMGNGGFR-OH` , Ratio IC50 reported as 8.71

Entry `H-KRWWKWIRW-OH` , Ratio IC50 reported as 0.04

Entry `H-GWKILRKRK-OH` , Ratio IC50 reported as 2.74

Entry `H-WRWWWKKWR-OH` , Ratio IC50 reported as 0.19

Entry `H-KWWLVWKRK-OH` , Ratio IC50 reported as 0.23

Entry `H-LRWRWWKIK-OH` , Ratio IC50 reported as 0.26

Entry `H-RVKTWRVRT-OH` , Ratio IC50 reported as 5.66

* * *

# System: Enterococcus faecium
# ASSAY METHOD TEXT: Antimicrobial activity against vancomycin-resistant Enterococcus faecium mic80(VanA) isolate after overnight incubation by broth microdilution method
# Assay type: functional
For each entry below, report its log10 of MIC value.
Would you kindly interpret these values as log10 of MIC expressed in µM?

Hey, Enterococcus faecium data for `H-FRRWWKWFK-OH` : log10 of MIC came out at 0.79

Hey, Enterococcus faecium data for `H-KIWWWWRKR-OH` : log10 of MIC came out at 0.77

Hey, Enterococcus faecium data for `H-WKKWWKRRW-OH` : log10 of MIC came out at 1.08

Hey, Enterococcus faecium data for `H-RKWIWRWFL-OH` : log10 of MIC came out at 0.49

Hey, Enterococcus faecium data for `H-KWKIFRRWW-OH` : log10 of MIC came out at 1.38

Hey, Enterococcus faecium data for `H-LRWWWIKRI-OH` : log10 of MIC came out at 0.80

Hey, Enterococcus faecium data for `H-AIRRWRIRK-OH` : log10 of MIC came out at 2.03

Hey, Enterococcus faecium data for `H-RKRLKWWIY-OH` : log10 of MIC came out at 1.11

* * *

# Tested on: Pseudomonas aeruginosa
# ASSAY METHOD TEXT: Antimicrobial activity against Pseudomonas aeruginosa H1001 expressing luciferase gene assessed as ratio antimicrobial IC50 for drug to Bac2A peptide by luminescence assay
# Assay type: functional
ASSAY READOUT: Ratio IC50
Enter a number only.

Entry `H-WRWWKWWRR-OH` , Ratio IC50 reported as 0.23

Entry `H-KRWRWWRWW-OH` , Ratio IC50 reported as 0.28

Entry `H-RWRGIVHIR-OH` , Ratio IC50 reported as 4.93

Entry `H-QRNKGLRHH-OH` , Ratio IC50 reported as 8.76

Entry `H-WRWRWWKRW-OH` , Ratio IC50 reported as 0.28

Entry `H-ANRWGRGIR-OH` , Ratio IC50 reported as 10.8

Entry `H-KRWWWVWKR-OH` , Ratio IC50 reported as 0.36

Entry `H-GRRVMNQKR-OH` , Ratio IC50 reported as 9.83

Entry `H-AMLGGRQWR-OH` , Ratio IC50 reported as 6.75

Entry `H-IVVRVWVVR-OH` , Ratio IC50 reported as 3.5

Entry `H-RWRRKWWWW-OH` , Ratio IC50 reported as 0.39

Entry `H-RRKWWWRWW-OH` , Ratio IC50 reported as 0.27

Entry `H-RWRRWKWWW-OH` , Ratio IC50 reported as 0.4

Entry `H-ARGRWINGR-OH` , Ratio IC50 reported as 7.24

Entry `H-RWRRWKWWL-OH` , Ratio IC50 reported as 0.08

Entry `H-GWNTMGRRW-OH` , Ratio IC50 reported as 6.32

Entry `H-WGRGGWTNR-OH` , Ratio IC50 reported as 25

Entry `H-WVKVWKYTW-OH` , Ratio IC50 reported as 5.64

Entry `H-RRWFVKWWY-OH` , Ratio IC50 reported as 0.52

Entry `H-RIKRWWWWR-OH` , Ratio IC50 reported as 0.31

Entry `H-KRWWIWRIR-OH` , Ratio IC50 reported as 0.35

Entry `H-IWWKWRRWV-OH` , Ratio IC50 reported as 0.29

Entry `H-KRWWRKWWR-OH` , Ratio IC50 reported as 0.15

Entry `H-RGRTSNWKM-OH` , Ratio IC50 reported as 7.07

Entry `H-RWWIRKWWR-OH` , Ratio IC50 reported as 0.21

Entry `H-TRKVWWWRW-OH` , Ratio IC50 reported as 0.76

Entry `H-WHGGQKWRK-OH` , Ratio IC50 reported as 8.5

Entry `H-RWRIKFKRW-OH` , Ratio IC50 reported as 0.26

Entry `H-IKWWWRMRI-OH` , Ratio IC50 reported as 0.39

Entry `H-VLVKKRRRR-OH` , Ratio IC50 reported as 12.48

Entry `H-WIRKRSRIF-OH` , Ratio IC50 reported as 3.39

Entry `H-WKRWKWWKR-OH` , Ratio IC50 reported as 0.25

Entry `H-GRQISWGRT-OH` , Ratio IC50 reported as 8.04

Entry `H-RQNGVWRVF-OH` , Ratio IC50 reported as 8.26

Entry `H-RWRIKRWWW-OH` , Ratio IC50 reported as 0.12

Entry `H-GSRRFGWNR-OH` , Ratio IC50 reported as 8.1

Entry `H-IRRRKKRIK-OH` , Ratio IC50 reported as 6.42

Entry `H-IRGRIIFWV-OH` , Ratio IC50 reported as 0.44

Entry `H-GMRRWRGKN-OH` , Ratio IC50 reported as 6.05

Entry `H-RRIWRWWWW-OH` , Ratio IC50 reported as 0.68

Entry `H-RWRWKRWWW-OH` , Ratio IC50 reported as 0.25

Entry `H-ILRVISKRR-OH` , Ratio IC50 reported as 25

Entry `H-RWKMWWRWV-OH` , Ratio IC50 reported as 0.24

Entry `H-WGKRRGWNT-OH` , Ratio IC50 reported as 7.91

Entry `H-RKVRWKIRV-OH` , Ratio IC50 reported as 0.32

Entry `H-RWYRKRWSW-OH` , Ratio IC50 reported as 0.7

Entry `H-WKRWRWIRW-OH` , Ratio IC50 reported as 0.28

Entry `H-RKRLKWWIY-OH` , Ratio IC50 reported as 0.18

Entry `H-SSGVRWSWR-OH` , Ratio IC50 reported as 8.16

Entry `H-RSGKKRWRR-OH` , Ratio IC50 reported as 6.5

Entry `H-WHYRSQVGR-OH` , Ratio IC50 reported as 6.65

Entry `H-IRKWRRWWK-OH` , Ratio IC50 reported as 0.41

Entry `H-AWRFKNIRK-OH` , Ratio IC50 reported as 9.2

Entry `H-RRWWMRWWV-OH` , Ratio IC50 reported as 0.33

Entry `H-RWWLKIRKW-OH` , Ratio IC50 reported as 0.18

Entry `H-KRFWIWFWR-OH` , Ratio IC50 reported as 3.04

Entry `H-KIWWWWRRR-OH` , Ratio IC50 reported as 0.21

Entry `H-WRNRKVVWR-OH` , Ratio IC50 reported as 6.79

Entry `H-RRFKFIRWW-OH` , Ratio IC50 reported as 0.24

Entry `H-ATRKGYSKF-OH` , Ratio IC50 reported as 25

Entry `H-RWIGVIIKY-OH` , Ratio IC50 reported as 2.24

Entry `H-WGGHKRRGW-OH` , Ratio IC50 reported as 6.19

Entry `H-RKWWRWWRW-OH` , Ratio IC50 reported as 0.31

Entry `H-GRTMNGRW-OH` , Ratio IC50 reported as 6.93

Entry `H-RRIRRVRWG-OH` , Ratio IC50 reported as 8.22

Entry `H-KWKIFRRWW-OH` , Ratio IC50 reported as 0.16

Entry `H-RWFRWWKRW-OH` , Ratio IC50 reported as 0.26

Entry `H-IWKRWWRRW-OH` , Ratio IC50 reported as 0.24

Entry `H-HYKFQRWIK-OH` , Ratio IC50 reported as 2.79

Entry `H-GGRGTRWHG-OH` , Ratio IC50 reported as 8.6

Entry `H-IRRRKWWWW-OH` , Ratio IC50 reported as 0.21

Entry `H-RWRWWKRWY-OH` , Ratio IC50 reported as 0.2

Entry `H-RRRWWWIIV-OH` , Ratio IC50 reported as 0.85

Entry `H-KRWLTWRFR-OH` , Ratio IC50 reported as 0.54

Entry `H-VKRYYWRWR-OH` , Ratio IC50 reported as 1.23

Entry `H-WKRWWKKWR-OH` , Ratio IC50 reported as 0.2

Entry `H-RNKFGGNWR-OH` , Ratio IC50 reported as 25
